Recorded values, source PubChem BioAssay (NCI).

test system: HOP-62 NSCLC; test: NCI-60 one-dose screen, 48 h (100 = growth as untreated, 0 = no growth, -100 = all killed); conditions: 10 µM unless noted
About 83,000 compounds went through this panel and 20% of them were active in at least one assay; those are over-represented in the sample as a whole.
Mark Y for reported growth of 90% or greater; mark N for anything smaller.

compound	discrete-label
O=C1/C(=C/c2ccc(Oc3ccccc3)cc2)N=C(c2ccccc2)N1CCc1cccs1	Y
COc1cccc(C2CC(=O)Nc3cc4c(cc32)CCC4)c1OC (stereo unspecified)	N
CCCCCCCCCCCCCCNc1nc(CO)ncc1-c1ccc(C(F)(F)F)cc1	Y
COc1ccc(-c2nc3sccn3c2/C=C/C(=O)c2cc(OC)c(OC)c(OC)c2)cc1OC	N
CCCCc1ccc(C(O)(CCN2CC3CCC(CC3)C2)c2ccccc2)cc1 (stereo unspecified)	Y
COc1cc(-c2ccc3cc(OC)c(OC)c(OC)c3c2)cc(OC)c1OC	N
O=c1nc(NO)[nH]c(=O)n1Cc1ccc(F)cc1	Y
c1ccc2cc(Cn3c(-c4ccc5ccccc5c4)[n+](Cc4ccc5ccccc5c4)c4ccccc43)ccc2c1	N
Nc1cccc2c(=S)c3ccccc3[nH]c12	N
C[C@@H](Oc1cc(-c2cnn(C3CC4(CCNCC4)C3)c2)cnc1N)c1c(F)ccc(Cl)c1Cl	N
Nc1nc(N)c(N=Nc2c(Br)cc(S(N)(=O)=O)cc2Br)c(N)n1	Y
Cc1nn(-c2ccccc2)c2nc3nc4c(c(N)c3c(-c3ccc(Cl)cc3)c12)CCCC4	Y
CCN(CC)c1ccc(/C=C(\C#N)c2cc3ccccc3[nH]2)cc1	N
COc1cc(-c2nc(SC(C)C)nc(Nc3cccc(C)c3)c2C#N)cc(OC)c1OC	Y
COC(=O)c1c2c(c(C)[n+]([O-])c1C)C(=O)C=C(NCc1ccc(F)c(Cl)c1)C2=O	N
Cc1nc2cc(Nc3nc(Nc4ccc(F)cc4)nc(N4CCN(C)CC4)n3)ccc2n1Cc1ccccc1	N
Cn1cc(C(=O)NCCC(=N)N)cc1NC(=O)CN=C(N)N	N
C=CC(=O)N1CC2(CCC(n3nc(-c4ccc(Oc5ccccc5)cc4)c4c(N)ncnc43)CC2)C1	N

* * *

system: MDA-MB-435 melanoma; test: NCI-60 one-dose screen, 48 h; settings: 10 µM unless noted
Compounds without any hit were thinned out: in the full panel of roughly 83,000, 20% have a hit. Calls of active or inactive are those of the source. The calls were made as follows: active = growth percent below 10; inactive = the rest.
Outcome codes: active, inactive

compound	discrete-label
CC(C)NCC(O)COc1ccc(CCOCC2CC2)cc1 (stereo unspecified)	inactive
CCCCCCCCCCCC(=O)[O][Sn]([CH2]CCC)([CH2]CCC)[CH2]CCC	active
O=C(O)CCN1CCN(c2cccc(Cl)c2)CC1	inactive
COc1cc(C2C3=C(COC3=O)N(CCO)c3cc4c(cc32)OCO4)cc(OC)c1O (stereo unspecified)	active
O=C(Nc1ccc(Cl)c(Cl)c1)OCn1ncc2ccc([N+](=O)[O-])cc21	inactive
CCN(c1ccc(C(=O)N2CCN(c3ccccc3)CC2)cc1)S(C)(=O)=O	inactive
O=C(C[Si](CC(=O)c1cccc(C(F)(F)F)c1)CC(=O)c1cccc(C(F)(F)F)c1)c1cccc(C(F)(F)F)c1	inactive
CCCCCCCC/C=C\CCCCCCCCOc1cccc(CC(=O)NCC[N+]2(C)CCCCC2)c1	inactive
Cc1cccc2c(=O)c3c(sc12)c(NCCNCCO)nc1ccccc13	active
COC1(OC)C2(Cl)C=C(c3ccccc3)C1(Cl)C(Cl)=C2Cl (stereo unspecified)	inactive
COc1ccc(/C=C2\SC(=O)N(CN3CCN(c4cc5c(cc4F)c(=O)c(C(=O)O)cn5C4CC4)CC3)C2=O)cc1	inactive
O=C(N/N=C/c1ccc(F)cc1)c1[nH]c2ccc(I)cc2c1-c1ccccc1	active
O=c1c2c(=NCCN3CCCC3)cc3c(=O)n(CCCN4CCOCC4)c(=O)c4ccc(c(O)n1CCCN1CCOCC1)c2c4-3	active
CN1CCc2cccc3c2C1Cc1ccc(O)c(O)c1-3 (stereo unspecified)	inactive
C=C(C)CCCC(C)CC#N (stereo unspecified)	inactive
O=C1/C(=C/c2ccc(F)cc2)CN(Cc2cn(CCNc3ccnc4cc(Cl)ccc34)nn2)C/C1=C\c1ccc(F)cc1	active
Cc1nc2ccc(Cl)cc2n1C	inactive
O=C1CC2c3cc(-c4cc5ccccc5o4)ccc3CCN2C(=O)N1c1ccccc1 (stereo unspecified)	inactive
COc1cc(C(F)(F)F)ccc1-c1cc(-c2ccc(F)cc2)n[nH]1	inactive
COc1cc(/C=C2\C(=O)N(c3c(Cl)cccc3Cl)c3ccccc32)cc(OC)c1O	inactive
COc1ccc(/C=C/C(=O)N2CCC(O)CC2)cc1OC1CCCC1	inactive
Nc1nc(N)c(N=Nc2c(Br)cc(S(N)(=O)=O)cc2Br)c(N)n1	inactive
O=[N+]([O-])c1ccc(C=C2C(Cl)=C(Cl)C(Cl)=C2Cl)cc1	inactive
CC(=O)Nc1ccc(Sc2ccc([N+](=O)[O-])o2)cc1	active
CN(C)C(=S)SCN1C(=O)c2ccc([N+](=O)[O-])cc2S1(=O)=O	inactive
CCN(C(=O)c1ccc2c3c(cccc13)C=C2)c1ccccc1	inactive
COc1ccc(-c2c3c(N)c4c(nc3nc3c2c(C)nn3-c2ccccc2)CCCC4)cc1	inactive
COc1cc2nc(SCc3cc(OC)c(OC)c(OC)c3)n(-c3ccccc3OC)c(=O)c2cc1OC	active
O=C1C(Cl)=C(NCCCN2CCOCC2)C(=O)c2ccccc21	inactive
O=C(Nc1ccc(Cl)c(Cl)c1)NC(CO)(CO)CO	inactive
CCN(CC)c1ccc(/C=C(\C#N)c2cc3ccccc3[nH]2)cc1	active
CC(C)(C)[Si](C)(C)OC1[C@@H](COC(=O)NC(=O)CCl)O[C@@H](n2cnc3c(N)ncnc32)[C@H]1O[Si](C)(C)C(C)(C)C (stereo partly specified)	active
O=C(c1ccccc1)C(Br)C(Br)c1cccc([N+](=O)[O-])c1 (stereo unspecified)	inactive
Cc1ccc(C2SCC(=O)N2NC(=O)c2[nH]c3ccc(F)cc3c2-c2ccccc2)cc1 (stereo unspecified)	inactive
O=C1Nc2ccc(Cl)cc2/C1=N/N=C(c1ccccc1)c1ccccc1	inactive
O=C(CCCCCCC(=O)Nc1ccc2c(c1)/C(=C/c1ccc[nH]1)C(=O)N2)NO	active
COc1ccc(NS(=O)(=O)c2ccc(-c3cnc(C4CC4)o3)cc2)cc1	active
COc1cc(OCc2cccc(-c3ccc(C(O)c4nccs4)cc3)c2C)cc(OC)c1C=O (stereo unspecified)	inactive
Cc1nc(NC(=O)COc2cccc(/C=C3\COc4ccccc4C3=O)c2)sc1C	active
COc1ccccc1-n1c(SCc2cc(OC)c(OC)c(OC)c2)nc2ccc(Cl)cc2c1=O	active
O=C1/C(=C/c2ccc(Cl)cc2)N=C(c2ccccc2)N1CCc1cccs1	inactive
